All values here come from patent US20100069366A1.

Item-by-item account of IC90
# Tested on: Streptococcus pyogens (ATCC8668)
# assayInfo: Microtitre plate assay, IC90 determination, SPY 8668
# Type: cell-based
# appliedConditions: Streptococcus pyogens ATCC8668; 90% inhibitory concentration for bacterial growth; resazurin; read-out: IC90 (μg/ml) SPY 8668
assayMetric: IC90

COc1nc2ccc(Br)cc2cc1/C(=C(/CCN(C)C)c1cccc2ccccc12)c1ccccc1 [Compound 9]	10.7 µg/mL
COc1nc2ccc(Br)cc2cc1C(/C(=C/CN(C)C)c1ccsc1)c1ccccc1 (stereo not shown) [Compound 17]	19.6 µg/mL
COc1nc2ccc(Br)cc2cc1C(/C(C)=C/CN(C)C)c1ccccc1 (stereo not shown) [Compound 14]	26.8 µg/mL
COc1nc2ccc(Br)cc2cc1C(/C(=C/CN(C)C)c1cccc2ccccc12)c1ccccc1 (stereo not shown) [Compound 10]	9.56 µg/mL
